Data provenance is patent US20200325187A1.

System Under Test: T1, hVEGF-A (human, UniProt P15692-4 27-191, limits assumed)
T1 construct: also called human VEGF-A; WT
Method Description: phage competition ELISA, soluble CKP
Measured Endpoint: pIC50
Here pIC50 is given on a logarithmic scale as minus log10 of the concentration in mol/L.

GCRTPWEPHDITCKQDSDCLAGCVCGPNGFCG (designed binder) [VEGF_CKP11]	4.10

q: Dear colleague, I am looking for the recorded pIC50 of the following binder: GCPTTRFKQYCKQDSDCLAGCVCGPNGFCG (designed binder) [VEGF_CKP6]
a: 5.52

q: May I ask what pIC50 has been recorded for GCRDLDVKWDCKQDSDCLAGCFCQYYSSCG (designed binder) [VEGF_CKP10] ?
a: 6.00

q: Need pIC50, item GCVTPWKPHWINCKQDSDCLAGCVCGPNGFCG (designed binder) [VEGF_CKP13]
a: 4.10

q: Recorded pIC50 for GCTTPWPPHEIMCKQDSDCLAGCVCGPNGFCG (designed binder) [VEGF_CKP12] , please?
a: 4.22

q: Item GCQDPTFNWALYCKQDSDCLAGCVCQMYQSCG (designed binder) [VEGF_CKP7] has what recorded pIC50?
a: 4.92

q: GET /values?readout=pIC50&item= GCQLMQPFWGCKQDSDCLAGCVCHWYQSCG (designed binder, also called E9) [VEGF_CKP9]
a: 6.22
